# assay_method_text: NCI Yeast Anticancer Drug Screen. Data for the sgs1 mgt1 strain (AID 161);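 also: 0% = growth of cultures given vehicle only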
# particulars: S. cerevisiae sgs1 mgt1 strain, at 50.0 µM, active compounds read high
Compounds without any hit were thinned out: in the full panel of roughly 79,000, 15% have a hit.
value_kind: growth inhibition (%)
Your answer is read as %, so omit the unit and give the number.

Worked cases, answers included:
compound | result
CC1=CC2C(C=C1)S(=O)(=O)N1CC21c1ccccc1 (configuration not stated) | -11
CN(C)CCc1ccc(Cl)cc1Cl | -2.5
COc1ccc2[nH]cc(CN(C)C)c2c1 | -10.2
CC1([N+](=O)[O-])COP(=O)(NCC2CCCO2)OC1 (configuration not stated) | -2.9
O=C1C=C(Cl)C(=O)C(Cl)=C1 | 99.5

Name the reported growth inhibition value associated with the compound CC(=O)CC(C)=O.CC(=O)CC(C)=O.CC(=O)CC(C)=O.[Cr] 1.05

Name the reported growth inhibition value associated with the compound O=C(COc1ccc(Cl)c(Cl)c1)Nc1ccc[n+](Cc2ccc(Cl)c(S(=O)(=O)F)c2)c1 95.3

Name the reported growth inhibition value associated with the compound O=NN(CS(=O)(=O)O)c1ccccc1 -1.6

Name the reported growth inhibition value associated with the compound c1ccc(-c2ccc[n+](CCC[n+]3cccc(-c4ccccn4)c3)c2)nc1 -15.2

Name the reported growth inhibition value associated with the compound CC12CCC(=O)C=C1CCC1C2CCC2(C)C(O[Si](C)(C)OC3CCC4C5CCC6=CC(=O)CCC6(C)C5CCC34C)CCC12 (configuration not stated) 95.8

###

# assay_method_text: NCI Yeast Anticancer Drug Screen. Data for the cln2 rad14 strain (AID 165);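 also: 0% = growth equal to vehicle treated cultures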
# particulars: S. cerevisiae cln2 rad14 strain, at 50.0 µM, active compounds read high
The panel holds about 79,000 compounds, 15% with a hit somewhere; the sample as a whole holds those more often.
Some molecules, each annotated with its measured growth inhibition.
Your answer is read as %, so omit the unit and give the number.

Worked cases, answers included:
molecule | result
O=C(Cl)OCCOCCOC(=O)Cl | -28.1
CC[S+](C)c1ccc(-c2c3nc(c(-c4ccc([S+](C)CC)cc4)c4ccc([nH]4)c(-c4ccc([S+](C)CC)cc4)c4nc(c(-c5ccc([S+](C)CC)cc5)c5ccc2[nH]5)C=C4)C=C3)cc1 (stereo not drawn) | 89.5
O=[n+]1c2ccccc2n([O-])c2ccccc21.[Cl][Cu][Cl] | 97.6
C=CC(N)=O (tested in a mixture with another compound) | 0.4
CCC1(CC)C(=O)NC(=O)N(C)C1=O | 28.8

Name the reported growth inhibition value associated with the molecule [CH3][Sb]1([Cl])[CH2]CC[CH2]1 -3.1

Name the reported growth inhibition value associated with the molecule [Pt].c1ccc([PH+](CC[PH+](CC[PH+](c2ccccc2)c2ccccc2)c2ccccc2)CC[PH+](c2ccccc2)c2ccccc2)cc1 (stereo not drawn) 8.6

Name the reported growth inhibition value associated with the molecule CCOc1ccc([N+](=O)[O-])cc1CNCCBr -22.1

###

Some compounds, each annotated with its measured growth inhibition.
# assay_method_text: NCI Yeast Anticancer Drug Screen. Data for the sgs1 mgt1 strain (AID 161);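 also: 0% = growth of cultures given vehicle only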
# particulars: S. cerevisiae sgs1 mgt1 strain, at 50.0 µM, active compounds read high
Compounds without any hit were thinned out: in the full panel of roughly 79,000, 15% have a hit.
Your answer is read as %, so omit the unit and give the number.

Worked cases, answers included:
structure | growth inhibition, %
CCCCOP(=O)(OCCCC)Oc1cccc([N+](=O)[O-])c1 | 18.9
CN(C)c1ccc(/C=C/c2cc3scc(-c4ccccc4)[n+]3c3ccccc23)cc1 | 99.4
CCC[CH2][Sn]1([CH2]CCC)[O]C(=O)CN=C(C)c2ccccc2[O]1 | 4
C[CH2][Pb]([CH2]C)([CH2]C)[n]1ccnc1 | -11.9
CCOC(=O)NP(=O)(Nc1ccccc1)Nc1ccccc1 | -3.5

Name the reported growth inhibition value associated with the compound O=C1NC2(CCCCC2)C(=O)N1CCCCCN(CCCl)CCCl 2.1
